In this section, each of the compounds is paired with its reported IC50.
Molecular target: recombinant human CXCR2 (Homo sapiens, UniProt P25025)
Construct: TEV protease site; Gal4-VP16 transcription factor
Sequence (P25025 1-360): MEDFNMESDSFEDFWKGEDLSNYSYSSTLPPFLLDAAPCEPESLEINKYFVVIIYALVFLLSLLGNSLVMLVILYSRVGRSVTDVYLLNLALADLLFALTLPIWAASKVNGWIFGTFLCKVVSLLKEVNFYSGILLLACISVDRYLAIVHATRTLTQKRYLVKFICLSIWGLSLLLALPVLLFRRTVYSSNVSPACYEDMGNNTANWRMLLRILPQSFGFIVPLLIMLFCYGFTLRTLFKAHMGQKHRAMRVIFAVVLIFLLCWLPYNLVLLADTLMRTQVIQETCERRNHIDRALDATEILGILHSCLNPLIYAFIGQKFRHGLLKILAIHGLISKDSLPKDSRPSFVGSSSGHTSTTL
Experiment: CXCR2 Tango assay
Type: cell-based
Settings: mean pIC50 of multiple test results; stimulated with 80 nM hCXCL1; reporter gene blue/green emission ratio; read-out: pIC50 (CXCR2 Tango assay) (converted)
Where a name gives a salt, the structure may show the parent alone.

[
  {
    "COMPOUND": "O=C(Nc1ccc(Cl)c(S(=O)(=O)[C@H]2CCOC2)c1O)N[C@@H]1CCC=C1Cl",
    "EXPERIMENTAL_VALUE": "≤ 1 nM"
  },
  {
    "COMPOUND": "CC1=CCCC1NC(=O)Nc1ccc(Cl)c(S(=O)(=O)C(C)(C)C)c1O (stereo not drawn)",
    "EXPERIMENTAL_VALUE": "≤ 10 nM"
  }
]

stdin: Using the record for CC(c1ncccn1)S(=O)(=O)c1c(Cl)ccc(NC(=O)NC2CCC=C2Cl)c1O (stereo not drawn) , report its IC50.
stdout: ≤ 10 nM

stdin: Using the record for CC(C)(C(F)(F)F)S(=O)(=O)c1c(Cl)ccc(NC(=O)NC2C=CCC2)c1O (stereo not drawn) , report its IC50.
stdout: ≤ 10 nM

stdin: Using the record for CCN(CC)S(=O)(=O)c1c(Cl)ccc(NC(=O)NC2CCC=C2C)c1O (stereo not drawn) , report its IC50.
stdout: ≤ 10 nM

stdin: Using the record for CC1=CCCC1NC(=O)Nc1ccc(Cl)c(S(=O)(=O)C(C)c2ncccn2)c1O (stereo not drawn) [Compound 29, trifluoroacetic acid salt] , report its IC50.
stdout: ≤ 10 nM

stdin: Using the record for `CC1=CCC[C@H]1NC(=O)Nc1ccc(Cl)c(S(=O)(=O)C(C)(C)CF)c1O` , report its IC50.
stdout: ≤ 1 nM

stdin: Using the record for CC(C)S(=O)(=O)c1c(Cl)ccc(NC(=O)NC2CCC=C2F)c1O (stereo not drawn) , report its IC50.
stdout: ≤ 10 nM

stdin: Using the record for CC1=CCC[C@H]1NC(=O)Nc1ccc(Cl)c(S(=O)(=O)C2CCC[C@H](O)C2)c1O (stereo partly drawn) , report its IC50.
stdout: ≤ 1 nM

stdin: Using the record for CC1=CCC[C@H]1NC(=O)Nc1ccc(Cl)c(S(=O)(=O)C(C)(C)C2CCOC2)c1O (stereo partly drawn) , report its IC50.
stdout: ≤ 1 nM

stdin: Using the record for `CC1=CCC[C@H]1NC(=O)Nc1ccc(C#N)c(S(=O)(=O)C(C)(C)C)c1O` , report its IC50.
stdout: ≤ 1 nM

stdin: Using the record for CC1(S(=O)(=O)c2c(Cl)ccc(NC(=O)NC3CCC=C3Cl)c2O)CCOCC1 (stereo not drawn) , report its IC50.
stdout: ≤ 10 nM
